Hey, just so you know, these numbers are from patent US9040523B2.

Test: Liver metabolic stability assay, mLM
Type: in vitro ADME
Conditions: mouse liver microsomes, 1 mg protein/ml, 5 μM test compound, 15 min, 37 °C
recorded-metric: %-compound metabolised Met_mLM

- compound: "CC(O)c1ccc(C2NCc3c(Cl)cccc3-n3cccc32)cc1 (stereo not drawn)"
  recorded-metric: "%-compound metabolised Met_mLM"
  experimental-value: "51%"
- compound: "CC(=O)c1ccc(C2=NCc3cc(Cl)cc(Cl)c3-n3cccc32)cc1"
  recorded-metric: "%-compound metabolised Met_mLM"
  experimental-value: "45%"

--- query ---
Reported %-compound metabolised Met_mLM of CC(=O)c1ccc(C2=NCc3c(Cl)cc(Cl)cc3-n3cccc32)cc1 : 37%
